ASSAY_SYSTEM: Sodium-dependent noradrenaline transporter (Homo sapiens, UniProt P23975)
Sequence (P23975 whole entry): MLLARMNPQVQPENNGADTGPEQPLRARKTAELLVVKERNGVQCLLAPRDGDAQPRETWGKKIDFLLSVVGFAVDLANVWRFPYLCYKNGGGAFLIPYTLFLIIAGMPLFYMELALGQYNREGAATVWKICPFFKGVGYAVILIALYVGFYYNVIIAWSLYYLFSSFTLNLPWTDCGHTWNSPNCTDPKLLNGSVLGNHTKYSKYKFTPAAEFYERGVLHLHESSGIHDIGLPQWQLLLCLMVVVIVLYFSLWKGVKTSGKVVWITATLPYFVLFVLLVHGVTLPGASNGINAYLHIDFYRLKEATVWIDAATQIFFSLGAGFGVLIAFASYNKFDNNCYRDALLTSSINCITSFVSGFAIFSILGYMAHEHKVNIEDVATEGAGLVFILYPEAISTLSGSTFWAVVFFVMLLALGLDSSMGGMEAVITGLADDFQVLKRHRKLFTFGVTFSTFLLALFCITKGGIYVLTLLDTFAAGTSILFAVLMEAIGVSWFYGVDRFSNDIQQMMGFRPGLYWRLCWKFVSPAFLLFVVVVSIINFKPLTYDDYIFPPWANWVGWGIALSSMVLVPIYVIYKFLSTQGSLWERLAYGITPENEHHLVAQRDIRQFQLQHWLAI
EXPERIMENT: DRUGMATRIX: Norepinephrine Transporter radioligand binding (ligand: [125I] RTI-55)
Format: cell membranes, MDCK, Membrane
STUDY_CONDITIONS: Not Active = under 50% inhibition at 10 µM; read-out: IC50
MEASURED_QUANTITY: log10 of IC50 (log10 of the value in µM)
log10 IC50, µM

stdin: Could you please provide reported log10 of IC50 for C[C@]12CC[C@@H]3c4ccc(OC(=O)c5ccccc5)cc4CC[C@H]3[C@@H]1CC[C@@H]2O [ESTRADIOL BENZOATE] ? Thanks!
stdout: 1.24

stdin: Could you please provide reported log10 of IC50 for "C#C[C@]1(O)CC[C@H]2[C@@H]3CCc4cc(OC)ccc4[C@H]3CC[C@@]21C" ? Thanks!
stdout: 0.14

stdin: Could you please provide reported log10 of IC50 for "Cc1onc(-c2ccccc2)c1-c1ccc(S(N)(=O)=O)cc1" ? Thanks!
stdout: 0.47

stdin: Could you please provide reported log10 of IC50 for CC(=O)N1CCN(c2ccc(OCC3COC(Cn4ccnc4)(c4ccc(Cl)cc4Cl)O3)cc2)CC1 (configuration not stated) ? Thanks!
stdout: 1.38

stdin: Could you please provide reported log10 of IC50 for "Oc1ccc(OCc2ccccc2)cc1" ? Thanks!
stdout: 0.59

stdin: Could you please provide reported log10 of IC50 for "N=C(Nc1ccccc1)Nc1ccccc1" ? Thanks!
stdout: 0.06

stdin: Could you please provide reported log10 of IC50 for [Cl-].[Cl-].[Zn+2] [ZINC CHLORIDE] ? Thanks!
stdout: 0.85

###

ASSAY_SYSTEM: UniProt:P21554
Sequence (P21554 whole entry): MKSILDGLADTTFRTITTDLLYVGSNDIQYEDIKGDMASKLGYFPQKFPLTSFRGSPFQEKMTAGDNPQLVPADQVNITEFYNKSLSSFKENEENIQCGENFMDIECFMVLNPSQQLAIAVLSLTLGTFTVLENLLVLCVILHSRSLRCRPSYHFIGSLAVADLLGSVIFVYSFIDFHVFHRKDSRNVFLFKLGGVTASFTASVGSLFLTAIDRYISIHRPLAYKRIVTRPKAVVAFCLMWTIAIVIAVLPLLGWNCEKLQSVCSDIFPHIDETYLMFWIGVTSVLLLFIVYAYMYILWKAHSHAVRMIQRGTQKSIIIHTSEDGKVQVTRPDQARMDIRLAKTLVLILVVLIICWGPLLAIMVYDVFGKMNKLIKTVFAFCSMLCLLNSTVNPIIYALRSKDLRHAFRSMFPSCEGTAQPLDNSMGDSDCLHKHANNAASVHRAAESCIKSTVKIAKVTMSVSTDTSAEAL
Format: cell membranes, Chem-1, Membrane
STUDY_CONDITIONS: read-out: IC50
Please respond with reported IC50 for every item in the list.

stdin: Could you please provide reported IC50 for COCCOC(=O)C1=C(C)NC(C)=C(C(=O)OC(C)C)C1c1cccc([N+](=O)[O-])c1 (configuration not stated) [NIMODIPINE] ? Thanks!
stdout: 1.74 µM

stdin: Could you please provide reported IC50 for C#C[C@]1(O)CC[C@H]2[C@@H]3CCc4cc(OC)ccc4[C@H]3CC[C@@]21C [MESTRANOL] ? Thanks!
stdout: 28.5 µM

###

EXPERIMENT: DRUGMATRIX: GABAA, Flunitrazepam, Central radioligand binding (ligand: [3H] Flunitrazepam)
Type: cell membranes, Rattus norvegicus, Wistar, Brain, Membrane
STUDY_CONDITIONS: Not Active = under 50% inhibition at 10 µM
MEASURED_QUANTITY: Ki

# COMPOUND, MEASURED_QUANTITY, RESULT
records = [
    ("C/C=C/C[C@@H](C)[C@@H](O)[C@H]1C(=O)N[C@@H](CC)C(=O)N(C)CC(=O)N(C)[C@@H](CC(C)C)C(=O)N[C@@H](C(C)C)C(=O)N(C)[C@@H](CC(C)C)C(=O)N[C@@H](C)C(=O)N[C@H](C)C(=O)N(C)[C@@H](CC(C)C)C(=O)N(C)[C@@H](CC(C)C)C(=O)N(C)[C@@H](C(C)C)C(=O)N1C", "Ki", "Not Active"),
    ("COc1cc2c(c3oc(=O)c4c(c13)CCC4=O)[C@@H]1C=CO[C@@H]1O2", "Ki", "Not Active"),
    ("OC(CCN1CCCCC1)(c1ccccc1)C1CCCCC1 (stereo not drawn)", "Ki", "Not Active"),
]
